Test: yeast display, Sf9 membrane polyspecificity reagent, FACS + sequencing; frameworks hold sequencing errors
quantity: polyreactivity (PSR sort gate)

Reference set (6 entries):
- primary.sequence: "QVQLVESGGGLVQAGGSLRLSCAASGRIFGVYGMGWYRQAPGKERELVAAITISGRTNYADSVKGRFTISRDNAKNTVYLQMNSLKREDTAVYYCAAGGQARHDYWGQGTQVTVSS"
  polyreactivity (PSR sort gate): "low polyreactivity"
- primary.sequence: "QVQLVESGGGLVQAGGSLRLSCAASGFIFERYAMGWYRKAPGKERELVAGIYSGGSTYYADSVKGRFTISRDNAKNTVYLQMNSLKPEDTAVYYCAAFRRQHIIYNYWGQGTQVTVSS"
  polyreactivity (PSR sort gate): "high polyreactivity"
- primary.sequence: "QVQLVESGGGLVQAGGSLRLSCAASGRIFTWYAMGWYRQAPGKERELVAAISWSGGRTYYADSVKGRFTISRDNAKNTVYLQMNSLKPEDTAVYYCNAVPSVRWRYDYWGQGTQVTVSS"
  polyreactivity (PSR sort gate): "high polyreactivity"
- primary.sequence: "QVQLVESGGGLVQAGGSLRLSCAASGRTFRDNAMGWYRQAPGKERELVAAISRRGGSTYYADSVKGRFTISRDNAKNTVYLQMNSLKPEDTAVYYCAADRPDGWVDYWGQGTQVTVSS"
  polyreactivity (PSR sort gate): "low polyreactivity"
- primary.sequence: "QVQLVESGGGLVQAGGSLRLSCAASGSIFPYYAMGWYRPAPGTERELVAAISRGGGTTYYADSVKGRFTISRDNAKNTVYLQMNSLKPEDTAVYYCAARQWRISTPYDYWGQGTQVTVSS"
  polyreactivity (PSR sort gate): "high polyreactivity"
- primary.sequence: "QGQRVESGGGLVQAGCSLRLSSAASGSTFNEYTLGWYRQAPGKERELVAAIRASDGSTFYADTVKGRFTISRDYAKNSVYFQMNSLKPEDTSVYYCPADYYWNDYWGQGTQVTVSS"
  polyreactivity (PSR sort gate): "low polyreactivity"

Here's the next entry for you.
Q: Tell me the measured polyreactivity (PSR sort gate) of QVQLVESGGGLVQAGGSLRLSCDASGRNFRRNAMGWYRQAPGKERELVAAITGGGSTNYADSVKGRFTISRDNAKNTVYLQMNSLKPEDTAVYYCAARRYGVRTYRFDSWGQGTQVTVSS , please.
A: high polyreactivity
